Reference for the values: patent US20110229463A1

Reported t1/2 values follow for various binders
biological target: T1, recombinant human EGFR extracellular domain with 6xHis (human, UniProt P00533 25-645); experiment: SPR (BIAcore 2000): IgG captured by anti-human Fc, soluble EGFR ECD injected
T1 construct: In-house protein; also called 6xHis EGFR ECD; soluble human EGFR ECD; not shown: 6xHis tag
Write down the numeric answer in min and omit the unit.

Reference set, count: 6
antibody 1284 (antibody, human IgG1, kappa, V domains shown, Chimeric mouse/human IgG1 kappa) VH: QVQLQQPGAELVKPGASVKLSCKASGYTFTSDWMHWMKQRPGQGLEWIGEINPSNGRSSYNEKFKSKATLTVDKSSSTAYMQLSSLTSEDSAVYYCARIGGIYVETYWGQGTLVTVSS VL: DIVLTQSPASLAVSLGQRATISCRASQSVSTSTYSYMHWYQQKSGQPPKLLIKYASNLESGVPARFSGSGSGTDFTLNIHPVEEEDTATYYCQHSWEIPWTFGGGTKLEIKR: 78.1
antibody 1320 (antibody, human IgG1, kappa, V domains shown, Chimeric mouse/human IgG1 kappa) VH: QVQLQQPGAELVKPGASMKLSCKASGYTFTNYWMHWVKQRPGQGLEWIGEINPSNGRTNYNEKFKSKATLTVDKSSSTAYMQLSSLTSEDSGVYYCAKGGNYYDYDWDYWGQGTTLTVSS VL: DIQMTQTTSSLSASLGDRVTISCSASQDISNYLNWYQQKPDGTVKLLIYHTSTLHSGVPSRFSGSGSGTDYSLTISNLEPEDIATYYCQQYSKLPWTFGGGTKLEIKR: 4.1
antibody 1030 (antibody, human IgG1, kappa, V domains shown, Chimeric mouse/human IgG1 kappa) VH: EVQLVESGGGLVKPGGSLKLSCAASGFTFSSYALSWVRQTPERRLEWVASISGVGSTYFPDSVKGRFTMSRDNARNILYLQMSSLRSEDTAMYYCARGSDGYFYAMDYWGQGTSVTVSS VL: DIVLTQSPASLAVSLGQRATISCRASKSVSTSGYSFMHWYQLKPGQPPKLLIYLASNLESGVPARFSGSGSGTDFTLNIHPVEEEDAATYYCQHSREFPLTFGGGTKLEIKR: 31.1
antibody 1347 (antibody, human IgG1, kappa, V domains shown, Chimeric mouse/human IgG1 kappa) VH: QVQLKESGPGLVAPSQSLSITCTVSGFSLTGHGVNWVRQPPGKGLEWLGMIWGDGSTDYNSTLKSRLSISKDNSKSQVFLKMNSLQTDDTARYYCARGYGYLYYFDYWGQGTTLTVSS VL: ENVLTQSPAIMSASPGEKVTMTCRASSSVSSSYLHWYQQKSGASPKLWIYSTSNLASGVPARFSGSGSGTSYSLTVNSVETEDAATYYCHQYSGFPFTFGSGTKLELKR: 22.9
antibody 1261 (antibody, human IgG1, kappa, V domains shown, Chimeric mouse/human IgG1 kappa) VH: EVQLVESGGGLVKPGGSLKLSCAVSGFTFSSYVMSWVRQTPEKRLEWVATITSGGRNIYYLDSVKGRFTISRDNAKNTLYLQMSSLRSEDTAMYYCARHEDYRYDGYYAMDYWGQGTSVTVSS VL: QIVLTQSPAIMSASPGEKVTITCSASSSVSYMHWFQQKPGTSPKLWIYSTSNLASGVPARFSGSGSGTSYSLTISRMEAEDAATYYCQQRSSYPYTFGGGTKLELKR: 3.6
antibody 1260 (antibody, human IgG1, kappa, V domains shown, Chimeric mouse/human IgG1 kappa) VH: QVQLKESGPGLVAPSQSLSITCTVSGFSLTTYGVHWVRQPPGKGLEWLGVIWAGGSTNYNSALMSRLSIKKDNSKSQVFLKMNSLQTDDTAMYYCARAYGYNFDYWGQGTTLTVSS VL: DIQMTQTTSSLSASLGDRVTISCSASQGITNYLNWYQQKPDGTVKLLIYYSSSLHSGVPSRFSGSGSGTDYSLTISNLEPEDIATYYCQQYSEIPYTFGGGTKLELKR: 74.1

Given the binder antibody 1254 (antibody, human IgG1, kappa, V domains shown, Chimeric mouse/human IgG1 kappa; also called mAb 1254) VH: EVQLVESGGGLVKPGGSLKLSCAASGFAYSTYDMSWVRQTPEKRLEWVAYISSGGDAAYYPDTVKGRFTISRDNAKNTLYLQMSSLKSEDTAMYYCARSRYGNYGDAMDYWGQGTSVTVSS VL: DVVMTQTPLSLPVSLGDQASISCRSSQSLVHSNGNTYLHWYLQKPGQSPKLLLYKVSNRFSGVPDRFSGSGSGTDFTLKISRVESEDLGVYFCSQNTHVYTFGGGTKLEIKR , what is its reported t1/2?
11.3
